Assay: protein stability index of a GFP-peptide fusion (yeast GPS) (PSI 1-4); higher = more stable; sorted into four equal gates, so the index is relative within each strain
Conditions: ubr1∆
If the reported protein stability index equals or exceeds 3, assign true (1). If not, assign false (0).

Check out these entries, answers already filled in.
SEEVDDLSMVPKMKDEE [SNF2] | true (1)
YHLTKAVKLGDLKKFTS [RPN3] | false (0)
GKLISNLSSTPMETLLS [YML031W/NDC1] | false (0)
NSESTTQGGNVNLDNTA [RPT5] | true (1)
EHGYQSRGFEVMYNGHT [RPB2] | false (0)

For this sequence, is measured protein stability index 3 or higher? DWVRFLALALGILYMGQ [RPN1]
false (0)

Same again, this time with LPKLKATGHRVLIFFQM [SNF2]
false (0)

Same read-out for HFQDQKNKKIEVYTKTI [POP7] ?
false (0)

// next record TTFTHCEIHPSMILGVA [RPB2]
false (0)

Entry GLLDESPNRLRVRTDDS [YML031W/NDC1] please
false (0)

Param item: TSAHLKLKEMQKVLNAH [SMC4]
false (0)

Queued: VKGLLNTYKRLVIGIFK [YJL039C/NUP192]
false (0)

Also SLLLAHFFSKSCSFFAK [NUT1] ?
false (0)
